System tested: T1, mouse serum albumin (MSA), full length (mouse, UniProt P07724 25-608)
T1 construct: mature; Immobilized on CM5 chip (SPR) or coated on plates (ELISA); also called mouse albumin; murine serum albumin
Test description: SPR off-rate ratio to parent ADX_7016_A01, MSA, 25 C
Observable: MSA kd/Parent kd

For orientation, consider the following solved cases.
*Q* // MSA kd/Parent kd lookup, key: ADX_6727_B09 (L38T/K85T) (designed binder, Full His6-tagged entry) MGVSDVPRDLEVVAATPTSLLISWDAPAVTVRYYRITYGREVQKYSDTGPLYIYQEFTVPGSKSTATISGLKPGVDYTITVYAVTGSGESPASSTPISINYRTEIDKPSQHHHHHH
*A* 61.2

*Q* Sample ADX_6727_F04 (Y44A/K85A) (designed binder, Full His6-tagged entry) MGVSDVPRDLEVVAATPTSLLISWDAPAVTVRYYRITYGREVQKYSDLGPLYIAQEFTVPGSKSTATISGLKPGVDYTITVYAVTGSGESPASSAPISINYRTEIDKPSQHHHHHH — what was its MSA kd/Parent kd?
*A* 16.2

*Q* Entry under review: ADX_6727_B01 (K85S) (designed binder, Full His6-tagged entry) MGVSDVPRDLEVVAATPTSLLISWDAPAVTVRYYRITYGREVQKYSDLGPLYIYQEFTVPGSKSTATISGLKPGVDYTITVYAVTGSGESPASSSPISINYRTEIDKPSQHHHHHH . Reported MSA kd/Parent kd?
*A* 1.2

*Q* Using the record for ADX_6727_D10 (Q33D/K85T) (designed binder, Full His6-tagged entry) MGVSDVPRDLEVVAATPTSLLISWDAPAVTVRYYRITYGREVDKYSDLGPLYIYQEFTVPGSKSTATISGLKPGVDYTITVYAVTGSGESPASSTPISINYRTEIDKPSQHHHHHH , report its MSA kd/Parent kd.
*A* 142

*Q* Request the reported MSA kd/Parent kd associated with ADX_6727_B04 (Y35S/K85S) (designed binder, Full His6-tagged entry) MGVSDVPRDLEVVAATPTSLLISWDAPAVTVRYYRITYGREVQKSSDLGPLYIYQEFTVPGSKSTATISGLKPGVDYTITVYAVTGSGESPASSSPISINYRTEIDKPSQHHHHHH
*A* 3.3

*Q* // MSA kd/Parent kd lookup, key: ADX_6727_G01 (L41A) (designed binder, Full His6-tagged entry) MGVSDVPRDLEVVAATPTSLLISWDAPAVTVRYYRITYGREVQKYSDLGPAYIYQEFTVPGSKSTATISGLKPGVDYTITVYAVTGSGESPASSKPISINYRTEIDKPSQHHHHHH
*A* 14.9

1: ADX_6727_B05 (I43S/K85T) (designed binder, Full His6-tagged entry) MGVSDVPRDLEVVAATPTSLLISWDAPAVTVRYYRITYGREVQKYSDLGPLYSYQEFTVPGSKSTATISGLKPGVDYTITVYAVTGSGESPASSTPISINYRTEIDKPSQHHHHHH
2: ADX_6727_C01 (K85A) (designed binder, Full His6-tagged entry) MGVSDVPRDLEVVAATPTSLLISWDAPAVTVRYYRITYGREVQKYSDLGPLYIYQEFTVPGSKSTATISGLKPGVDYTITVYAVTGSGESPASSAPISINYRTEIDKPSQHHHHHH
*Q* Compare 1 and 2 and name the one whose reported MSA kd/Parent kd is smaller. Your answer should be the label attached to the chosen record.
*A* 2
(2: 1.2, 1: 18.2)
